# System: CCRF-CEM leukemia
# assay: NCI tumour cell line growth inhibition, 48 h
parameter: TGI

> print(dat)
                                    molecule  assay.value
 1  CC(C)OP(=O)(c1ccccc1)c1ccc2c(c1)OCCOCCOCCOCCO2 (stereo unspecified)     > 100 µM
 2      COc1cccc2cc(N(C)c3ncnc4ccccc34)ccc12      17.8 µM
 3  COC(=O)C([C@H]1CC[C@H](OCc2ccccc2)[C@@]1(O)COCc1ccccc1)C(C)(O)CCc1ccccc1 (stereo partly specified)      60.2 µM
 4  O=S(=O)(O)c1ccc(N=Nc2ccc(N=Nc3c(O)c(S(=O)(=O)O)cc4cc(S(=O)(=O)O)ccc34)cc2)cc1     > 100 µM
 5                      Oc1ccc(CCl)c2cccnc12     > 100 µM
 6  O=c1c(C(=Nc2ccccc2)c2ccccc2)c[nH]n1-c1ccccc1     > 100 µM
 7       Cn1c2ccccc2c2ccc3c(c21)C(=O)C=CC3=O      14.5 µM
 8  COc1cc2c(cc1OC)[Se]c1cc(OC)c(OC)cc1[Se]2     > 100 µM
 9  [N-]=[N+]=Nc1ccc2c(c1)Sc1ccccc1N2CCCCN1CCN(Cc2ccc(C(=O)c3ccccc3)cc2)CC1     > 100 µM
10  N.N.NCCCCCCN.O=C([O-])CCl.O=C([O-])CCl.O=C([O-])CCl.O=C([O-])CCl.[Pt+4].[Pt+4]      > 50 µM
11              CC(=O)Oc1ccc2oc(=O)cc(C)c2c1     > 100 µM
12  COc1ccc2c(=O)c(-c3cc4c(cc3OC)OCO4)coc2c1     > 100 µM
13  C=CCCC1CCCCC/C1=N\N(C)C (stereo unspecified)     > 100 µM
14  Cn1c(=O)c2c(ncn2Cc2ccc(O)c([N+](=O)[O-])c2)n(C)c1=O     > 100 µM
15  [N-]=[N+]=NCCCn1c2c(c3ccccc3c1=O)C(=O)c1cc(Br)ccc1-2     > 100 µM
16  COC(=O)CCC1(NS(=O)(=O)c2ccc(C)cc2)CCC(C(C)(C)C)CC1 (stereo unspecified)        37 µM
17  C=CCN1C2Cc3cc(OC)c(OC)cc3C1Cc1cc(OC)c(OC)cc12     > 100 µM
18  COc1ccc(Cc2nc3cc([N+](=O)[O-])ccc3n2C[C@@H]2CCCN3CCCCC23)cc1 (stereo partly specified)      29.2 µM
19  CC(=O)NC1=C(C)C(=O)c2c(nc3n2CCC3OC(=O)c2ccccc2)C1=O (stereo unspecified)      4.44 µM
20  CC1=C(O)C(=O)C2C(=O)C1C(C)C2c1ccc(C)cc1 (stereo unspecified)     > 100 µM
21      O=C(O)COc1cc(-c2ccccc2)nc2ccc(F)cc12     > 100 µM

====

# System: U251 CNS
// reported GI50 per item
parameter: GI50

> print(dat)
                                        mol  parameter  assay.value
1  CC(=O)Nc1ccc2c(C3=C(c4cn(C)c5ccccc45)C(=O)NC3=O)cn(C)c2c1       GI50       889 nM
2   Nc1c(C(=O)Nc2ccccn2)sc2nc3c(cc12)CCCCC3       GI50      2640 nM
3  COc1cc(NC(=O)c2ccc(C(F)(F)F)nc2Nc2ccc(Cl)cc2C)cc(OC)c1OC       GI50      4860 nM
4  Cc1cccc(NC2=C(Cl)C(=O)N(Cc3ccc(Cl)cc3)C2=O)c1       GI50      4080 nM
5  Cc1ccc(C)c(COc2cc(NC(=O)c3ccc4c(c3)OCO4)ccc2N(C)S(C)(=O)=O)c1       GI50       238 nM
